Molecular target: human CD33 G188A (human, UniProt P20138 18-364)
Sequence (P20138 18-364 G188A limits assumed): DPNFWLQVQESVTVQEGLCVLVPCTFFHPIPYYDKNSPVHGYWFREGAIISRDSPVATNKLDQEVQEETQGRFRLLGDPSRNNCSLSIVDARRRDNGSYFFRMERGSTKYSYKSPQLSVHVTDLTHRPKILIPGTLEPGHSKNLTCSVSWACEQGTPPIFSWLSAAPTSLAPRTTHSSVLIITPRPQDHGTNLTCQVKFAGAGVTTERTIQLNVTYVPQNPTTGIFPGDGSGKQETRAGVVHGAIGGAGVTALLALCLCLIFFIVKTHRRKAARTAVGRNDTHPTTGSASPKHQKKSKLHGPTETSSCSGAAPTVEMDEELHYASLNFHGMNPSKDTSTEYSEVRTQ
Assay: alanine scan, flow cytometry, HEK293-T;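 further: antibody binding to each alanine-substituted CD33 mutant expressed transiently in HEK293-T, read as fluorescence minus background, mean of duplicates, relative to wild-type CD33 set as 100%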
OUTCOME MEASURE: Mean % WT Binding
A complete answer gives the number followed by the unit.

Worked cases, answers included:
Refmab #2 (antibody, V domains shown, In the alanine scan antibodies were used as IgG or Fab) VH: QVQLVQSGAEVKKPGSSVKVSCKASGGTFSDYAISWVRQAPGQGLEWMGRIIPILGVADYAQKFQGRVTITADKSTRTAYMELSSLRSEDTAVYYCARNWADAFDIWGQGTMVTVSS VL: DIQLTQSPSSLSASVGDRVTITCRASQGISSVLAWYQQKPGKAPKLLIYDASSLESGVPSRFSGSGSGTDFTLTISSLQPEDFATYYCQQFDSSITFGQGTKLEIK; 130%
Refmab #4 (antibody, V domains shown, In the alanine scan antibodies were used as IgG or Fab) VH: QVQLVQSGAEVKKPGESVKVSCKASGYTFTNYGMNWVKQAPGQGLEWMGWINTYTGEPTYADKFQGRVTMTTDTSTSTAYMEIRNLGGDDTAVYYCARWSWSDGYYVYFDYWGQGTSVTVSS VL: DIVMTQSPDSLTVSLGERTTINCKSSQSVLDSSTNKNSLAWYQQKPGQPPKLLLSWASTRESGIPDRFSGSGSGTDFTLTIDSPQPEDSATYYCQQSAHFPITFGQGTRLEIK; 91.3%
Refmab #1 (antibody, V domains shown, In the alanine scan antibodies were used as IgG or Fab; also called hP67.6) VH: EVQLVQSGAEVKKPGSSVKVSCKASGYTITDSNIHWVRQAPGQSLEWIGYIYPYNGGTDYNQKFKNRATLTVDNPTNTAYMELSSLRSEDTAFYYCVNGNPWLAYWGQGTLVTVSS VL: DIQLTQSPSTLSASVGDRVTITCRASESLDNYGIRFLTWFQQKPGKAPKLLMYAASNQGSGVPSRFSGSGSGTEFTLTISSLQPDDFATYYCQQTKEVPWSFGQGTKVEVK; 102%

Okay, next one:
Ask: Please look up its Mean % WT Binding: Refmab #3 (antibody, V domains shown, In the alanine scan antibodies were used as IgG or Fab) VH: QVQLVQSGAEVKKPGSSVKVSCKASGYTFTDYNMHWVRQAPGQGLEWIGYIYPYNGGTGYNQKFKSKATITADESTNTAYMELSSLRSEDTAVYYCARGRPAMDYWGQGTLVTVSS VL: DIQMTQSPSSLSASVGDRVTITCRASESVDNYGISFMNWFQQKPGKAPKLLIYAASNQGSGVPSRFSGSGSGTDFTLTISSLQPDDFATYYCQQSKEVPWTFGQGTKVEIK
Result: 85.1%
